Target: recombinant PRL-1 (Homo sapiens, UniProt Q93096)
Construct: 6xHis (N, cleaved yes); made in house; host or cells: E. coli One Shot BL21 Star
Sequence (Q93096 1-173): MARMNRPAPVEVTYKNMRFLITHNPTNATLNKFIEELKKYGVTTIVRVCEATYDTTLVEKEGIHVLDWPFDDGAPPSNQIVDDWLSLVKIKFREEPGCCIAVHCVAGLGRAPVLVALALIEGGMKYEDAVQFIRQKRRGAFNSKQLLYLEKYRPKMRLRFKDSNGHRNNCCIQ
Experiment: In vitro phosphatase assay (DiFMUP hydrolysis), PRL-1; further: test concentration or dose not given here
Type: biochemical
Conditions: FDA-approved drug screen; compared to DMSO
Counter-ions that a name gives are not always drawn.
REPORTED_METRIC: % Phosphatase Activity (compared to DMSO) PRL-1 (%)
Express your answer in %, writing the number without its unit.

| MOLECULE | SCALE_UNIT | OBSERVED_MEASUREMENT |
| --- | --- | --- |
| C[C@@](Cc1ccc(O)c(O)c1)(NN)C(=O)O [Carbidopa] | % | 68 |
| CC(C)NCC(O)COc1cccc2ccccc12.Cl (centres unmarked) [Propranolol HCl] | % | 95 |
| NS(=O)(=O)c1ccc(C(=O)O)cc1 [Carzenide] | % | 105 |
| CC1=NN(c2ccc(C)c(C)c2)C(=O)/C1=N\Nc1cccc(-c2cccc(C(=O)O)c2)c1O [Eltrombopag Olamine] | % | 56 |
| CN(C)CC/C=C1/c2ccccc2COc2ccc(CC(=O)O)cc21 [Olopatadine HCl] | % | 116 |
| CC1(C)O[C@@H]2C[C@H]3[C@@H]4CCC5=CC(=O)C=C[C@]5(C)[C@H]4[C@@H](O)C[C@]3(C)[C@]2(C(=O)CO)O1 [Desonide] | % | 98 |
| Cc1ccc(NC(=O)c2ccc(CN3CCN(C)CC3)cc2)cc1Nc1nc(-c2cccnc2)cs1 [Masitinib (AB1010)] | % | 115 |

The molecule CN(CCOc1ccc(CC2SC(=O)NC2=O)cc1)c1ccccn1 (centres unmarked) [Rosiglitazone] showed % Phosphatase Activity (compared to DMSO) PRL-1 equal to 90
